Reported pIC50 is given for each of the following compounds.
Protein target, amino acids: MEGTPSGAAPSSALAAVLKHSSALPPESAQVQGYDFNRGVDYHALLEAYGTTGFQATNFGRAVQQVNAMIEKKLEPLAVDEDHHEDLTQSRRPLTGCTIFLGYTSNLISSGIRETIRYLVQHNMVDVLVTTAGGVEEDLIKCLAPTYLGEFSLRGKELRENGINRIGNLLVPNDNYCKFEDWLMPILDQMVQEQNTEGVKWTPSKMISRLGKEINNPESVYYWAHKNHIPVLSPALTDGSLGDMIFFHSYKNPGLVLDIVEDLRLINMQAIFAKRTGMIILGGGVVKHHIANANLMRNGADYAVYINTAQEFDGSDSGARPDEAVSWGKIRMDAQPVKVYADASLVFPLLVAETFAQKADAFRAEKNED
By convention, pIC50 is the negative base-10 log of a molar concentration.

>  <Structure>
N=C(N)NCCCSCCCNC(=N)N

>  <pIC50>
4.68

$$$$

Fill in: pIC50 of `NCCCCCCCNCCCCCCCN` is ___ 4.20
